- Test Target: Mitogen-activated protein kinase kinase kinase 2 (Homo sapiens)
- Test Name: modulators of MEK5 binding to wildtype MEKK2, primary screen, biochemical, multiplex bead flow cytometry, Alexa488-MEK5 (AID 1531)
- Condition Parameters: Alexa488-MEK5 binding to MEKK2 WT, at 10 µM, actives lie on both sides
The campaign covered roughly 290,000 compounds. About 3,300 (1.1%) were called active. What follows is part of a selection rich in actives, with near analogues and random picks from the rest.
Parameter Measured: binding response (% of control) (%)
Supply the numeric figure in %, leaving out any unit text.

Returns the measured binding response (% of control) for the input compound. Input: `NC(=O)c1oc2ccccc2c1NC(=O)CS(=O)(=O)c1ccccc1` 106

Now the same for `CCOc1ccc(C)cc1S(=O)(=O)NC1CCCCCC1` 106

Now consider `CCOC(=O)c1cccc(NC(=O)c2ccc(F)cc2F)c1` and answer again. 105

Entry to check: CC1CC(C)CN(S(=O)(=O)c2cccc3nonc23)C1 (centres undefined) 109

Next compound up: `CCOC(=O)C[C@H]1c2ccc(C(F)(F)F)cc2S(=O)(=O)N1c1ccccc1` 98

`CC1CCN(c2ccc([N+](=O)[O-])cc2C(N)=O)CC1` ? 95

Could you do the same for CC1(C)S[C@@H]2[C@H](NC(=O)COc3ccccc3)C(=O)N2C1C(=O)OCc1ccccc1 (some centres undefined) , please? 93

Input CCN(CC)S(=O)(=O)c1ccc(N2CCOCC2)c(NC(=O)C2CSC3(C)CCC(=O)N23)c1 (centres undefined) 100

Could you do the same for COC(=O)C1(C)CC1(c1ccccc1)c1ccccc1 (centres undefined) , please? 104

These entries and their values trace back to PubChem BioAssay AID1531.
